tested on: SNB-19 CNS; assay: NCI tumour cell line growth inhibition, 48 h
In this section, each of the molecules is paired with its reported TGI.
Please give a number only; it is taken to be in µM.

1) Cc1ccc(-c2nc(NCCOCCOCCN)nc(N3CCN(c4ccccn4)CC3)n2)cc1: 34.9

Form entry - test system: SNB-19 CNS; read-out: TGI; molecule: "NCCCN(CCCCN(CCCN)CCCc1ccccc1)CCCc1ccccc1"
6.62

* * *

tested on: PC-3 prostate; assay: NCI tumour cell line growth inhibition, 48 h; in the data active = GI50 below about 0.43 µM; inactive = the rest
Allowed answers: TRUE (active), FALSE (inactive)

Examples from the recorded data:
1) COC(=O)c1c(C)nc(C)c2c1C(=O)C(Br)=C(NCc1ccccc1)C2=O: FALSE
2) CCCCCCCCCCCC/C=C\CC[C@@H](O)[C@H](O)CC[C@H](O)[C@@H]1CC[C@@H](CCCCCCCC2=C[C@H](C)OC2=O)O1: FALSE

Next molecule, please.
I'd appreciate the recorded outcome for "CCCC(=O)Nc1cc(C(=O)N2C[C@H]3C[C@@]34C2=CC(=O)c2[nH]cc(C)c24)n(COC)c1" from this test.
TRUE
